Molecular target: IRAK4 (Homo sapiens)
Construct: Degradation of IRAK4 in OCI-LY10 was quantitatively measured using Meso Scale Discovery technology; endogenous in cells; host or cells: OCI-LY10
Experiment: IRAK4 MSD Degradation in OCI-LY10
Format: cell-based
Settings: OCI-LY10 cells, 4 hrs incubation, MSD; read-out: IRAK4 degradation in OCI-LY10 at 4 hrs: DC50
Result type: DC50

Example cases with answers are listed next.
Cn1c(=O)n(C2CCC(=O)NC2=O)c2cccc(C#CCN3CCN(C[C@H]4CC[C@H](n5cc(NC(=O)c6cnn7ccc(C8CCC8)nc67)c(C(F)F)n5)CC4)CC3)c21 (some centres unmarked)	0.01 to 0.1 µM
CN(C[C@H]1CC[C@H](n2cc(NC(=O)c3cnn4ccc(N5CCC5)nc34)c(C(F)F)n2)CC1)C1CCN(c2cccc3c2n(C)c(=O)n3C2CCC(=O)NC2=O)CC1(F)F (some centres unmarked)	> 0.2 µM
Cn1c(=O)n(C2CCC(=O)NC2=O)c2cccc(N3CCN([C@H]4CCN(C[C@H]5CC[C@H](n6cc(NC(=O)c7cnn8ccc(N9CC%10(COC%10)C9)nc78)c(C(F)F)n6)CC5)CC4(F)F)CC3)c21 (some centres unmarked)	> 0.2 µM
Cn1c(=O)n(C2CCC(=O)NC2=O)c2cccc(N3CCC(N4CCN(C[C@H]5CC[C@H](n6cc(NC(=O)c7cnn8ccc(N9C[C@H]%10C[C@@H]9CO%10)nc78)c(C(F)F)n6)CC5)CC4)CC3)c21 (some centres unmarked) [I-69]	< 0.01 µM

Please look at the following compound next.
Prompt line: State the recorded DC50 for this entry: Cn1c(=O)n(C2CCC(=O)NC2=O)c2cccc(C3=CCN(C[C@H]4CC[C@H](n5cc6cc(NC(=O)c7cccc(C(F)(F)F)n7)c(C(F)F)cc6n5)CC4)CC3F)c21 (some centres unmarked) [I-726]
Response line: > 0.2 µM

###

Target: IRAK4 (Homo sapiens)
Construct: Degradation of IRAK4 in OCI-LY10 was quantitatively measured using Meso Scale Discovery technology; endogenous in cells; host or cells: OCI-LY10
Sequence (Q9NWZ3 1-460): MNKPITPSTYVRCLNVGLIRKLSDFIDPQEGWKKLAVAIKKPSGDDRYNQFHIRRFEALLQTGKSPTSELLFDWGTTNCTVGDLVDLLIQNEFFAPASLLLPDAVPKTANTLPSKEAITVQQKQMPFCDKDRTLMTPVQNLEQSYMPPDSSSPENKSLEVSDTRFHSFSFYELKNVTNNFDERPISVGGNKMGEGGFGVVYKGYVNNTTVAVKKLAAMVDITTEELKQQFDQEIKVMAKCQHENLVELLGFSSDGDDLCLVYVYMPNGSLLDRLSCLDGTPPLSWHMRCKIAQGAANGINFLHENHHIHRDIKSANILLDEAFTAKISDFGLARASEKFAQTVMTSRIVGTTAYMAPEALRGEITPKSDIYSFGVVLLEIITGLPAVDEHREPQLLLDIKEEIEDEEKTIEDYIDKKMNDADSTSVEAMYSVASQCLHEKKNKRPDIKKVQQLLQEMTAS
Test: IRAK4 MSD Degradation in OCI-LY10
Type: cell-based
Settings: OCI-LY10 cells, 24 hrs incubation, MSD; read-out: IRAK4 degradation in OCI-LY10 at 24 hrs: DC50
Result type: DC50

Example cases with answers are listed next.
Cn1c(=O)n(C2CCC(=O)NC2=O)c2cccc(N3CC(C4CCN(C[C@H]5CC[C@H](n6cc(NC(=O)c7cnn8ccc(N9C[C@H]%10C[C@@H]9CO%10)nc78)c(C(F)F)n6)CC5)CC4(F)F)C3)c21 (stereo partly drawn)	> 200 nM
Cn1c(=O)n(C2CCC(=O)NC2=O)c2cccc(C#CCN3CCN(C[C@H]4CC[C@H](n5cc(NC(=O)c6cnn7ccc(N8CC9(CCOC9)C8)nc67)c(C(F)F)n5)CC4)CC3)c21 (stereo partly drawn)	> 200 nM

Please look at the following compound next.
Prompt line: State the recorded DC50 for this entry: Cn1c(=O)n(C2CCC(=O)NC2=O)c2cccc(C#CCOC3CCN(C[C@H]4CC[C@H](n5cc(NC(=O)c6cnn7ccc(N8CC9(CCOCC9)C8)nc67)c(C(F)F)n5)CC4)CC3)c21 (stereo partly drawn)
Response line: > 200 nM

###

Molecular target: IRAK4 (Homo sapiens)
Construct: Degradation of IRAK4 in OCI-LY10 was quantitatively measured using Meso Scale Discovery technology; endogenous in cells; host or cells: OCI-LY10
Sequence (Q9NWZ3 1-460): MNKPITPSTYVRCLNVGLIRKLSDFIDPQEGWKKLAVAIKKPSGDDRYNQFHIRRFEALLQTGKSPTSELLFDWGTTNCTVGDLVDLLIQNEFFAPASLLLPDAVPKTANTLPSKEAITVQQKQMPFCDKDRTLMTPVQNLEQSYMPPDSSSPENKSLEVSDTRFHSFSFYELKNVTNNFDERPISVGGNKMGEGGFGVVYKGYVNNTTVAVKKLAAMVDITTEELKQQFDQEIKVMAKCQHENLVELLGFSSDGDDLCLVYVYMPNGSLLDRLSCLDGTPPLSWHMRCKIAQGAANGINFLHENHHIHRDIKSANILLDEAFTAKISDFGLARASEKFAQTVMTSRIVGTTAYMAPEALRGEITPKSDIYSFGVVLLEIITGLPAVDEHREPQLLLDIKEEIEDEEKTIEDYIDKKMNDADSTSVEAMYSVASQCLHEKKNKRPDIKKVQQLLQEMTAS
Assay: IRAK4 MSD Degradation in OCI-LY10
Format: cell-based
Conditions: OCI-LY10 cells, 4 hrs incubation, MSD; read-out: IRAK4 degradation in OCI-LY10 at 4 hrs: DC50
DC50 for assorted compounds

Example cases with answers are listed next.
Cn1c(=O)n(C2CCC(=O)NC2=O)c2cccc(N3CCC(N(CC(F)(F)F)C[C@H]4CC[C@H](n5cc(NC(=O)c6cnn7cccnc67)c(C(F)F)n5)CC4)CC3)c21 (stereo partly shown)	> 0.2 µM
CN(C[C@H]1CC[C@H](n2cc3cc(NC(=O)c4cccc(C(F)(F)F)n4)c(S(C)(=O)=O)cc3n2)CC1)C1CCN(c2cccc3c2n(C)c(=O)n3C2CCC(=O)NC2=O)CC1F (stereo partly shown)	> 0.2 µM
Cn1c(=O)n(C2CCC(=O)NC2=O)c2cccc(C#CCOC3C[C@H]4CC[C@@H](C3)N4C[C@H]3CC[C@H](n4cc(NC(=O)c5cnn6ccc(N7C[C@H]8C[C@@H]7CO8)nc56)c(C(F)F)n4)CC3)c21 (stereo partly shown)	> 0.2 µM
Cn1c(=O)n(C2CCC(=O)NC2=O)c2cccc([C@H]3C[C@H](O[C@@H]4CCN(C[C@H]5CC[C@H](n6cc(NC(=O)c7cnn8ccc(N9C[C@H]%10C[C@@H]9CO%10)nc78)c(C(F)F)n6)CC5)C[C@H]4F)C3)c21 (stereo partly shown)	> 0.2 µM
C[C@H]1CN(c2ccn3ncc(C(=O)Nc4cn([C@H]5CC[C@H](CN6CCN(CC#Cc7cccc8c7n(C)c(=O)n8C7CCC(=O)NC7=O)CC6)CC5)nc4C(F)F)c3n2)CCO1 (stereo partly shown)	> 0.2 µM
Cn1c(=O)n(C2CCC(=O)NC2=O)c2cccc(C#CCOC3CCN(C[C@H]4CC[C@H](n5cc(NC(=O)c6cnn7ccc(N8C[C@H]9C[C@@H]8CO9)nc67)c(C(F)(F)F)n5)CC4)CC3)c21 (stereo partly shown)	0.01 to 0.1 µM
Cn1c(=O)n(C2CCC(=O)NC2=O)c2cccc(N3CCC4(CCN(C[C@H]5CC[C@H](n6cc7cc(NC(=O)c8cncc(C#N)c8)c(F)cc7n6)CC5)CC4)CC3)c21 (stereo partly shown)	> 0.2 µM
Cn1c(NC(=O)c2cccc(C(F)(F)F)n2)cc2cn([C@H]3CC[C@H](CN4CC[C@@H](c5cccc6c5n(C)c(=O)n6C5CCC(=O)NC5=O)[C@H](F)C4)CC3)nc2c1=O (stereo partly shown)	> 0.2 µM

Prompt line: Form field: DC50 recorded for COc1cc2nn([C@H]3CC[C@H](CN4CC(c5c(OC)ccc6c5n(C)c(=O)n6C5CCC(=O)NC5=O)C4)CC3)cc2cc1NC(=O)c1cccc(C(C)(C)F)n1 (stereo partly shown) with IRAK4 (Homo sapiens) (enter value)
Response line: > 0.2 µM

Prompt line: Again, but for CC(C)c1ccn2ncc(C(=O)Nc3cn([C@H]4CC[C@H](CN5CCN(CC#Cc6cccc7c6n(C)c(=O)n7C6CCC(=O)NC6=O)CC5)CC4)nc3C(F)F)c2n1 (stereo partly shown)
Response line: 0.01 to 0.1 µM

###

Target: IRAK4 (Homo sapiens)
Construct: Degradation of IRAK4 in OCI-LY10 was quantitatively measured using Meso Scale Discovery technology; endogenous in cells; host or cells: OCI-LY10
Sequence (Q9NWZ3 1-460): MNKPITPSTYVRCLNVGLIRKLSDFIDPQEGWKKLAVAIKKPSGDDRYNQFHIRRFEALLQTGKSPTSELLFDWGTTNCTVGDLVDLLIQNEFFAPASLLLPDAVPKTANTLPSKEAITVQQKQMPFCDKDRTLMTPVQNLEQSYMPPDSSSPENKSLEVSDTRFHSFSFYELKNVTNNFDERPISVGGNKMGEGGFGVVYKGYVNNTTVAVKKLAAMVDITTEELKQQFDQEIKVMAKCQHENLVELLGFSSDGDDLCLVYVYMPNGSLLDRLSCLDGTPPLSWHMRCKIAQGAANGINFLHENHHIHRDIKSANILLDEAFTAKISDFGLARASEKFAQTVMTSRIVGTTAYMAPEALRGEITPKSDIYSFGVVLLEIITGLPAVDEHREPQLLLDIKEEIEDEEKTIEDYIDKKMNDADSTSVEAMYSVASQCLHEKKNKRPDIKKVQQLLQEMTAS
Assay: IRAK4 MSD Degradation in OCI-LY10
Assay type: cell-based
Settings: OCI-LY10 cells, 4 hrs incubation, MSD; read-out: IRAK4 degradation in OCI-LY10 at 4 hrs: DC50
Result type: DC50

Example cases with answers are listed next.
O=C1CCC(c2ccc(C#CCN3CCN(C[C@H]4CC[C@@H](n5cc(NC(=O)c6cnn7ccc(N8C[C@@H]9C[C@H]8CO9)nc67)c(C(F)F)n5)CC4)CC3)cc2)C(=O)N1 (some centres unmarked) [I-126]	> 200 nM
Cn1c(=O)n(C2CCC(=O)NC2=O)c2cccc(N3CC[C@@H](CN4CCN(C[C@H]5CC[C@H](n6cc(NC(=O)c7cnn8ccc(N9C[C@H]%10C[C@@H]9CO%10)nc78)c(C(F)F)n6)CC5)CC4)C3)c21 (some centres unmarked) [I-363]	> 200 nM
CN(C)c1ccn2ncc(C(=O)Nc3cn([C@H]4CC[C@H](CN5CCN(CC#Cc6cccc7c6n(C)c(=O)n7C6CCC(=O)NC6=O)CC5)CC4)nc3C(F)F)c2n1 (some centres unmarked) [I-101]	< 10 nM
Cn1c(=O)n(C2CCC(=O)NC2=O)c2cccc(C3CN([C@H]4CCN([C@H]5CC[C@H](n6cc(NC(=O)c7cnn8ccc(N9C[C@H]%10C[C@@H]9CO%10)nc78)c(C(F)F)n6)CC5)CC4(F)F)C3)c21 (some centres unmarked) [I-750]	> 200 nM
COC(C)(C)c1ccn2ncc(C(=O)Nc3cn([C@H]4CC[C@H](CN5CCN(CC#Cc6cccc7c6n(C)c(=O)n7C6CCC(=O)NC6=O)CC5)CC4)nc3C(F)F)c2n1 (some centres unmarked) [I-220]	> 200 nM
COc1cc2nn([C@H]3CC[C@H](CN4CCC5(CC4)CCN(c4cccc6c4n(C)c(=O)n6C4CCC(=O)NC4=O)CC5)CC3)cc2cc1NC(=O)c1cncc([S+](C)[O-])c1 (some centres unmarked) [I-150]	10 to 100 nM
CN(C[C@H]1CC[C@H](n2cc(NC(=O)c3cnn4cccnc34)c(C(F)F)n2)CC1)C1CCN(c2ccc3c(c2)n(C)c(=O)n3C2CCC(=O)NC2=O)CC1(F)F (some centres unmarked) [I-481]	> 200 nM
Cn1c(=O)n(C2CCC(=O)NC2=O)c2cccc(N3CCN(CC4COC5(C4)CN(C[C@H]4CC[C@H](n6cc7cc(NC(=O)c8cccc(C(F)(F)F)n8)ncc7n6)CC4)C5)CC3)c21 (some centres unmarked) [I-662]	> 200 nM

Prompt line: State the recorded DC50 for this entry: Cn1c(=O)n(C2CCC(=O)NC2=O)c2cccc(C#CCCC3CCN(CC4CCC(n5cc(NC(=O)c6cnn7ccc(C8C[C@H]9C[C@@H]8CO9)nc67)c(C(F)F)n5)CC4)CC3)c21 (some centres unmarked) [I-160]
Response line: < 10 nM

Prompt line: Again, but for Cn1c(=O)n(C2CCC(=O)NC2=O)c2cccc(C#CCN3CCN(C[C@H]4CC[C@H](n5cc(NC(=O)c6cnn7ccc(N8CC9(CCOC9)C8)nc67)c(C(F)F)n5)CC4)CC3)c21 (some centres unmarked) [I-317]
Response line: > 200 nM
